Target: GalU (Klebsiella oxytoca, UniProt A0A163UX09)
Sequence (A0A163UX09 entry or part of it): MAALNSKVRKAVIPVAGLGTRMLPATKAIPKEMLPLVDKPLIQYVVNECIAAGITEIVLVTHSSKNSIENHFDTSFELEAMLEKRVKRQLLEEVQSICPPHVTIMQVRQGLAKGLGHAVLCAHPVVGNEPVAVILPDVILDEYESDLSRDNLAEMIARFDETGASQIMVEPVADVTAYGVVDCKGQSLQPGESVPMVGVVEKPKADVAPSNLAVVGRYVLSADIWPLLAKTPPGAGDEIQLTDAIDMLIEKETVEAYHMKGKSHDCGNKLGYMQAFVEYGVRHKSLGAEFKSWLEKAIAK
RECORDED ENDPOINT: Kd (µM)
Write it as a number; the unit µM goes unstated.

Task: Can you share its Kd? I mean this molecule: O=[N+]([O-])c1ccc2c(c1)S(=O)(=O)C=C2 [Stattic]
Output: 50

---

Target: GalU (Shigella sonnei, UniProt Q3Z0V1)
Construct: intact galU gene in pET28a (His-tagged)
Sequence (Q3Z0V1 entry or part of it): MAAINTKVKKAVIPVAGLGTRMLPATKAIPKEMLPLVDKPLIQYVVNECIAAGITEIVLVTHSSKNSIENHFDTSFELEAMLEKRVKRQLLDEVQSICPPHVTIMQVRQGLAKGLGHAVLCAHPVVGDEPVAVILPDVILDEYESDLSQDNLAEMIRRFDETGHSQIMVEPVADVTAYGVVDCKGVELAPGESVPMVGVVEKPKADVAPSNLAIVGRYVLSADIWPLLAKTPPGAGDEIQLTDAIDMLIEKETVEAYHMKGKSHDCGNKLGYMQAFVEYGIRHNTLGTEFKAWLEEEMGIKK
Assay: microscale thermophoresis (MST) with purified GalU; supported by malachite green enzyme inhibition ([…] decrease at […])
RECORDED ENDPOINT: pKd
Lab note: report pKd as minus log10 of the concentration in molar units, number only.

Task: May I ask what pKd has been recorded for O=[N+]([O-])c1ccc2c(c1)S(=O)(=O)C=C2 [Stattic] ?
Output: 4.70
